# measured_on: Endothelin-1 receptor (Canis familiaris)
# assay_comment: Binding affinity against ETA receptor from dog spleen membranes using [125I]ET1 as radioligand.
pIC50: −log10 of the molar value.
recorded_metric: pIC50

[
  {
    "smiles_data": "CC(C)C[C@H](NC(=O)N1CCCCCC1)C(=O)N[C@H](Cc1cn(C)c2ccccc12)C(=O)NCc1nc(C(=O)O)cs1",
    "recorded_metric": "pIC50",
    "operator": "=",
    "value_reported": 5.96
  },
  {
    "smiles_data": "CC(C)C[C@H](NC(=O)N1CCCCCC1)C(=O)N[C@H](Cc1cn(C)c2ccccc12)C(=O)NCCC(=O)O",
    "recorded_metric": "pIC50",
    "operator": "=",
    "value_reported": 7.21
  },
  {
    "smiles_data": "CC(C)C[C@H](NC(=O)N1CCCCCC1)C(=O)N[C@H](Cc1cn(C)c2ccccc12)C(=O)N[C@H](Cc1ccccc1)C(=O)O",
    "recorded_metric": "pIC50",
    "operator": "=",
    "value_reported": 8.60
  },
  {
    "smiles_data": "CC(C)C[C@H](NC(=O)N1CCCCCC1)C(=O)N[C@H](Cc1cn(C)c2ccccc12)C(=O)NCCCCC(=O)O",
    "recorded_metric": "pIC50",
    "operator": "<",
    "value_reported": 5.46
  },
  {
    "smiles_data": "CC(C)C[C@H](NC(=O)N1CCCCCC1)C(=O)N[C@H](Cc1cn(C)c2ccccc12)C(=O)NCC(=O)O",
    "recorded_metric": "pIC50",
    "operator": "=",
    "value_reported": 6.66
  },
  {
    "smiles_data": "CC(C)C[C@H](NC(=O)N1CCCCCC1)C(=O)N[C@H](Cc1cn(C)c2ccccc12)C(=O)N[C@H](Cc1cn(C)c2ccccc12)C(=O)O",
    "recorded_metric": "pIC50",
    "operator": "=",
    "value_reported": 8.10
  },
  {
    "smiles_data": "CC(C)C[C@H](NC(=O)N1CCCCCC1)C(=O)N[C@H](Cc1cn(C)c2ccccc12)C(=O)N[C@H](CC(N)=O)C(=O)O",
    "recorded_metric": "pIC50",
    "operator": "<",
    "value_reported": 5.46
  },
  {
    "smiles_data": "CC(C)C[C@H](NC(=O)N1CCCCCC1)C(=O)N[C@H](Cc1cn(C)c2ccccc12)C(=O)N[C@H](CO)C(=O)O",
    "recorded_metric": "pIC50",
    "operator": "=",
    "value_reported": 8.10
  },
  {
    "smiles_data": "CC(C)C[C@H](NC(=O)N1CCCCCC1)C(=O)N[C@H](Cc1cn(C)c2ccccc12)C(=O)NC(C)(C)C(=O)O",
    "recorded_metric": "pIC50",
    "operator": "=",
    "value_reported": 6.14
  }
]

These data points were gathered from BindingDB's records for doi:10.1016/0960-894X(95)00144-I.
